System: UACC-62 melanoma
Experiment: NCI-60 one-dose screen, 48 h (100 = growth as untreated, 0 = no growth, -100 = all killed)
Settings: 10 µM unless noted
Experimental: Growth inhibition of the UACC-62 human tumor cell line is measured as a screen for anti-cancer activity. Cells are grown in 96 well plates and exposed to the test compound for 48 hours. Compounds are tested at a single concentration, which is 10^-5 M for most compounds. The reported endpoint is percent growth (GI% or GIPRCNT), where numbers from 0 - 100% represent growth inhibition, and numbers from -100% - 0 represent cell death. For example, a value of 40 represents 60% growth inhibition. […]
About 83,000 compounds went through this panel and 20% of them were active in at least one assay; those are over-represented in the sample as a whole.
Experimental readout: growth (%)
Write down the numeric answer in % and omit the unit.

Ask: Which growth value belongs to COc1ccc2c(c1)cn1c3ccc(O)cc3nc(N)c21 ?
Result: 32.5

Ask: Please give the measured growth for this molecule: c1cc[n+](Cc2c3ccccc3cc3c2ccc2ccccc23)cc1
Result: 11.2

Ask: Look at this molecule and give its reported growth. CN(N)c1nc2sc3c(c2c(=O)[nH]1)CCCC3
Result: 110

Ask: Returns the measured growth for the input molecule. Input: COc1cc2cc(NCc3ccc(F)cc3)nc(C)c2cc1OC
Result: 27.8

Ask: What value of growth has been reported for the following molecule? NN1C(=O)CSC1=S
Result: 116

Ask: Query: growth; subject: O=C1C=CC2(NN=C(c3ccccc3)N2c2ccc(Cl)cc2)c2cccc(O)c21 (stereo unspecified)
Result: -33.1

Ask: // growth lookup, key: CO[C@@H](C(=O)N1Cc2[nH]nc(NC(=O)c3ccc(N4CCN(C)CC4)cc3)c2C1)c1ccccc1
Result: 30.6

Ask: # growth lookup, item Nc1c2c(c(O)c3c1=C(CO)C=N3)=NCCS2=O (stereo unspecified)
Result: -56.4

Ask: Which growth reading was recorded for the molecule Cc1cc2c(-c3nc4ccccn4c3NC34CC5CC(CC(C5)C3)C4)c(O)c(O)cc2c(O)c1-c1c(C)cc2c(-c3nc4ccccn4c3NC34CC5CC(CC(C5)C3)C4)c(O)c(O)cc2c1O ?
Result: 0.552

Ask: # input molecule: O=C(NOCCO)c1cc(CN2OCCCC2=O)c(F)c(F)c1Nc1ccc(I)cc1F ; wanted: its growth
Result: 4

###

system: MOLT-4 leukemia; assay: NCI-60 one-dose screen, 48 h (100 = growth as untreated, 0 = no growth, -100 = all killed); conditions: 10 µM unless noted
About 83,000 compounds went through this panel and 20% of them were active in at least one assay; those are over-represented in the sample as a whole.
Label TRUE when growth is strictly below 20%; at or above that, label FALSE.

CCN1CCN(Cc2ccc(NC(=O)Nc3nc(-c4cc(OC)c(OC)c(OC)c4)cs3)cc2C(F)(F)F)CC1: TRUE

Ask: growth strictly < 20% for this compound? O=C1CC(c2ccc3c(c2)OCO3)c2ncn(-c3ccc(Cl)cc3)c2N1 (centres undefined)
Result: FALSE

Ask: Criterion: growth strictly below 20%. Is it met by CC(=O)OC(C(=O)c1ccccc1)c1ccccc1 (centres undefined) ?
Result: FALSE

Ask: Lab note: growth threshold 20%. Does this compound come in strictly under it? CCn1c(-c2nonc2N)nc2c(C#CC(C)(C)O)ncc(OC[C@H]3CCCNC3)c21
Result: TRUE

Ask: Quick check: growth of Cc1cc([C@@H](C)Nc2ccccc2C(=O)O)c2nc(N3CCOCC3)cc(=O)n2c1 under 20%?
Result: FALSE

Ask: Item O=C(Nc1cccc(Cl)c1)Nc1ncc(CCNc2ncnc3ccsc23)s1 : growth beneath 20%, strictly?
Result: TRUE

Ask: Please determine if CCCCN1C(=O)c2cccc3c(-c4ccc5c(c4)ncn5C4CCCCC4)ccc(c23)C1=O is below 20% in terms of growth.
Result: FALSE

Ask: Would you kindly verify if growth of Clc1ccc2c(NCCNc3nc(N4CCCC4)nc4ccccc34)ccnc2c1 is strictly less than 20%?
Result: TRUE

Ask: Please check: growth for COC(=O)c1ccc2c(C(=Nc3ccc(N(C)C(=O)CN4CCN(C)CC4)cc3)c3ccccc3)c(O)[nH]c2c1 , strictly under 20% or not?
Result: FALSE

Ask: Say whether its growth is strictly beneath 20%. Entry: c1cc(OCCN2CCCCC2)cc(-c2n[nH]c3ccc(-c4ncn[nH]4)cc23)c1
Result: FALSE

Ask: Field: below-cutoff. Rule: recorded growth strictly less than 20%. Subject: Cc1cc(N2CCCC2)nc(N(CCCNc2ccnc3cc(Cl)ccc23)Cc2ccc3c(c2)OCO3)n1
Result: TRUE

Ask: Would you kindly verify if growth of C[C@@H](C[C@H](CCO)c1cc(C(F)(F)F)cc(C(F)(F)F)c1)c1ccc2ccccc2c1 is strictly less than 20%?
Result: FALSE

Ask: Could you please tell me whether growth recorded for O=CC(OC(=O)c1ccccc1)C(OC(=O)c1ccccc1)C(COC(c1ccccc1)(c1ccccc1)c1ccccc1)OC(=O)c1ccccc1 (centres undefined) is less than 20%?
Result: TRUE

Ask: For this compound, is growth lower than 20%? CN(C)C/C=C/C(=O)Nc1cc2c(Nc3ccc(F)c(Cl)c3)ncnc2cc1O[C@H]1CCOC1
Result: TRUE

###

tested on: OVCAR-3 ovarian; experiment: NCI-60 one-dose screen, 48 h (100 = growth as untreated, 0 = no growth, -100 = all killed); settings: 10 µM unless noted
This is part of a sample that, as a whole, favours compounds with a hit. Of some 83,000 tested, about 20% had one in any assay.
Experimental readout: growth (%)
Supply the numeric figure in %, leaving out any unit text.

Example entries and their recorded answers appear below.
NC1(c2ccc(-c3nc4ccn5c(=O)[nH]nc5c4cc3-c3ccccc3)cc2)CCC1: 39.7
CC(=O)CC1CCCC1c1ccc2ccccc2c1 (centres undefined): 105
COc1c(C(NC(=O)c2ccccc2)c2sccc2C)cc(Cl)c2cccnc12 (centres undefined): 117

Ask: What value of growth has been recorded for this entry: Cc1ccc(NC(=O)c2ccc(CN3CCN(C)CC3)cc2)cc1Nc1nc(-c2cccnc2)cs1
Result: 79.6

###

system: UO-31 renal; assay: NCI-60 one-dose screen, 48 h (100 = growth as untreated, 0 = no growth, -100 = all killed); conditions: 10 µM unless noted
About 83,000 compounds went through this panel and 20% of them were active in at least one assay; those are over-represented in the sample as a whole.
Please note: label 1 applies when growth is 30% or greater, and label 0 applies otherwise.

The examples below pair each entry with its known result.
O=C(Nc1ccc(C(=O)Nc2ccc(C3=NCCCN3)cc2)cc1)Nc1ccc(C2=NCCCN2)cc1: label 1
Cc1cc(O)cc(-c2c(-c3ccnc(-c4cccnc4)c3)cnn2C)c1: label 1
C/C(=C(/c1ccc(Cl)cc1)c1ccc(OCCN2CCCC2)cc1)c1ccccc1: label 1
CC(=O)OC(C(=O)c1ccccc1)c1ccccc1 (centres undefined): label 1
Cc1cnc(Nc2ccc(OCCN3CCCC3)cc2)nc1Nc1cccc(S(=O)(=O)NC(C)(C)C)c1: label 0
Cc1cc2c(-c3nc4ccccn4c3NC3CCCCC3)c(O)c(O)cc2c(O)c1-c1c(C)cc2c(-c3nc4ccccn4c3NC3CCCCC3)c(O)c(O)cc2c1O: label 1
CCOC(=O)c1sc(NC(=O)COc2ccc(/C=C3\Cc4ccc(Cl)cc4C3=O)cc2)nc1C: label 0
N[C@@H]1CCCN(c2c(/C=C3\SC(=O)NC3=O)cccc2-c2ccccc2)C1: label 1

Ask: hey, is growth for this one >= 30%? COCc1c(-c2ccc(NC(=O)Nc3cc(C(F)(F)F)ccc3F)c(F)c2)c2c(N)ncnn2c1CN1CCOCC1
Result: label 0

Ask: Could you verify whether the entry O=C(NO)c1ccc(Cn2c(=O)n(CCc3ccccc3)c(=O)c3ccccc32)cc1 shows growth of no less than 30%?
Result: label 0

Ask: Decide: is the reported value of growth for Cc1cccc(C)c1N1C(c2ccccc2)=NNC12C=CC(=O)c1c(O)cccc12 (centres undefined) equal to or greater than 30%?
Result: label 1

Ask: For this molecule, is measured growth 30% or higher? Cn1cnc2c(F)c(Nc3ccc(Br)cc3F)c(C(=O)NOCCO)cc21
Result: label 1

Ask: Entry C[C@H]1Oc2cc(cnc2N)-c2c(nn(C)c2C#N)CN(C)C(=O)c2ccc(F)cc21 : is its growth no less than 30%?
Result: label 1

###

test system: RPMI-8226 leukemia; experiment: NCI-60 one-dose screen, 48 h (100 = growth as untreated, 0 = no growth, -100 = all killed); details: 10 µM unless noted
This is part of a sample that, as a whole, favours compounds with a hit. Of some 83,000 tested, about 20% had one in any assay.
Below: a set of entries, each annotated with reported growth.
Quick note: give the figure in %, leave out the unit.

Illustrative cases are given below, each with its answer.
O=C(Cn1ccnc1)Nc1ccc(-c2nc3ccccc3s2)cc1: 52
COc1ccc(Cl)c(Nc2nc3ccccc3nc2NS(=O)(=O)c2cccc(NC(=O)C(C)(C)N)c2)c1: 51.5
CC(=O)C1=C(C)NC(SCc2nnc(-c3ccc(C)cc3)o2)=NC1c1ccc(F)cc1 (stereo not drawn): 83.7
O=C1C=CC2(NN=C(c3ccccc3)N2c2ccccc2)c2cccc(O)c21 (stereo not drawn): 65.5
Cc1cc(-c2cc(OC(=O)c3ccccc3)ccc2Cl)cc2nnc(Nc3ccc(OCCN4CCCC4)cc3)nc12: 74.4
FC(F)(F)c1ccc(CNc2ccc(Cc3c[nH]c4ncc(Cl)cc34)cn2)cn1: 26.3
COc1cc(-c2nc(C(=O)Nc3ccc(C)cc3)nn2-c2ccc(F)c(F)c2)cc(OC)c1OC: 103

Ask: Query (compound): COc1cc2ncnc(Nc3ccc(F)c(Cl)c3)c2cc1NC(=O)/C=C/CN1CCCCC1 ; field requested: growth
Result: -31.2
